Target of assay: UniProtKB P19099
Sequence (P19099 25-503): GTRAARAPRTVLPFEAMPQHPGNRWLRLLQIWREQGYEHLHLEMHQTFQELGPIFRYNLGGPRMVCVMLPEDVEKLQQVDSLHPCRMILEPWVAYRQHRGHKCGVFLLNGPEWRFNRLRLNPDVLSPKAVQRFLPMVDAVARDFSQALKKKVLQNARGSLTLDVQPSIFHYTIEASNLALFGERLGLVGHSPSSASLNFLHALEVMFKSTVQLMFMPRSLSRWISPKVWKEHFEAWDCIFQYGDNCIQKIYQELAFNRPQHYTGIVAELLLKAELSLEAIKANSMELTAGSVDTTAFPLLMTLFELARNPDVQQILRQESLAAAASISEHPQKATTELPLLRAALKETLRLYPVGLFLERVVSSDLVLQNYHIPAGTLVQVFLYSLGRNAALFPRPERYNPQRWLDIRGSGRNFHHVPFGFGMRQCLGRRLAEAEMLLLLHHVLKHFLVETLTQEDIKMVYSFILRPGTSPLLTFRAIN
Method description: In vitro human CYP11B2 (aldesterone) assay in NCI-H295R cells
Condition notes: 1 μM Ang II, 24 hr, aldosterone production by SPA
Overview of reported IC50 across a group of molecules:
Report only the number, with the unit nM understood.

Use the examples below as a reference point.
INSERT INTO assay_data (molecule, quantitative_result) VALUES
  ('N#Cc1ccc(C2CCCCc3cncn32)c(-c2ccc(F)cc2)c1 (single isomer, unassigned)', 0.4),
  ('COc1ccc(CN(C)C(=O)C2(c3ccc(C#N)cc3Cl)CCc3cncn32)cc1 (stereo not drawn)', 2.7);

For N#Cc1ccc(C2CCCCc3cncn32)c(Br)c1 (racemic) [3-bromo-4-(6,7,8,9-tetrahydro-5H-imidazo[1,5-a]azepin-5-yl)benzonitrile racemate] on UniProtKB P19099, measured IC50 was 1.2

----------
Target of assay: Human CYP11B1 (Homo sapiens, UniProt P15538)
Sequence (P15538 25-503): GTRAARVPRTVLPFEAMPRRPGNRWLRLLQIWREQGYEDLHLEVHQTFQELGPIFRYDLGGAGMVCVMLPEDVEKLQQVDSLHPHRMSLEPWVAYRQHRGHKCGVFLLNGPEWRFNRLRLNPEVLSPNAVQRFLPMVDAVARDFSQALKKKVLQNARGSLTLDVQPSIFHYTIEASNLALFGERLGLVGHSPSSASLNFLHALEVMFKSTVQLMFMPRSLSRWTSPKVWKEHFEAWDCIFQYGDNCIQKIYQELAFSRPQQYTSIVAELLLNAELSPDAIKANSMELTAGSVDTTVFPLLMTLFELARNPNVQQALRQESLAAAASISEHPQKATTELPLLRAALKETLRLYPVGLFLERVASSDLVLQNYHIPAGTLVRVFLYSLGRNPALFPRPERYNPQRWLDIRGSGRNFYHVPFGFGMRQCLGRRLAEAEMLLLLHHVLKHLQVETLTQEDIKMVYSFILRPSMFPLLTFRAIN
Endpoint: IC50 (pM)
Report only the number, with the unit pM understood.

For N#Cc1ccc(C2CCCCc3cncn32)c(Br)c1 (racemic) [3-bromo-4-(6,7,8,9-tetrahydro-5H-imidazo[1,5-a]azepin-5-yl)benzonitrile racemate] on Human CYP11B1 (Homo sapiens, UniProt P15538), measured IC50 was 200

----------
Overview of reported pIC50 across a group of molecules:
Target of assay: Rat CYP11B1 (Rattus norvegicus, UniProt P15393)
Construct: sonicated homogenate, 500 x g supernatant
Sequence (P15393 25-499): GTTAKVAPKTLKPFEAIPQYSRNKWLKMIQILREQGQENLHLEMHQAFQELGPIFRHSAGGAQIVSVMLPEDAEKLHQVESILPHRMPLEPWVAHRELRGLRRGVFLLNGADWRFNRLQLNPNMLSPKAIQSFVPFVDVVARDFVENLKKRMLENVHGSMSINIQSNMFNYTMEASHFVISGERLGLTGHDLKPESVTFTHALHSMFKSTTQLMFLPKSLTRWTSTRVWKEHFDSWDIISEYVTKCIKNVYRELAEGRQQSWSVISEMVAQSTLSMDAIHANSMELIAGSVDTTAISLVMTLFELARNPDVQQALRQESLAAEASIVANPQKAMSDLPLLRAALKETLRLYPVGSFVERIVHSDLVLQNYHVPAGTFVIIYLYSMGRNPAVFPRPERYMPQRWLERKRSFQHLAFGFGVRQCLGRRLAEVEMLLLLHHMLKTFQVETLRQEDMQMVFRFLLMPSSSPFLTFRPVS
Method description: In vitro rat CYP11B1 assay
Condition notes: V79-4 cell homogenate, 11-deoxycorticosterone to corticosterone, SPA
On this scale, pIC50 is minus log10 of a concentration expressed in M (mol/L).

INSERT INTO measurements (molecule, endpoint, quantitative_result) VALUES
  ('N#Cc1ccc(C2CCCCc3cncn32)c(Br)c1 (racemic) [3-bromo-4-(6,7,8,9-tetrahydro-5H-imidazo[1,5-a]azepin-5-yl)benzonitrile racemate]', 'pIC50', 9.00),
  ('N#Cc1ccc([C@H]2CCc3cncn32)c(F)c1 (single isomer, unassigned) [4-(6,7-Dihydro-5H-pyrrolo[1,2-c]imidazol-5-yl)-3-fluorobenzonitrile enantiomer B]', 'pIC50', 6.31),
  ('COc1ccc(CN(C)C(=O)C2(c3ccc(C#N)cc3Cl)CCc3cncn32)cc1 (stereo not shown)', 'pIC50', 8.70);

Field: next molecule
Recorded result, N#Cc1ccc(C2CCCCc3cncn32)c(-c2ccc(F)cc2)c1 (single isomer, unassigned) , pIC50: 9.52
